Experiment: Clearance in mouse at 1 mg/kg, iv
Format: ADME, organism-based
Details: in vivo
Measure name: clearance (mL/min/kg)

>  <Structure smiles>
COc1cc2nc(N/N=C3\CCCc4cccnc43)sc2cc1OC

>  <Endpoint result>
56.5

$$$$

---

Test: Half life in mouse liver microsomes at 10 uM preincubated for 5 mins followed by NADPH addition and measured up to 45 mins by LC/MS analysis
Assay type: ADME, Microsome
Details: time <=50 min
Each entry below carries its reported half-life at 10 µM.

>  <Structure smiles>
Cc1ccc2nc(N/N=C3\CCCc4cccnc43)sc2c1

>  <Unit info>
min

>  <half-life at 10 µM>
2.2

$$$$
>  <Structure smiles>
NC(=S)N/N=C/c1ncccc1N

>  <Unit info>
min

>  <half-life at 10 µM>
10.5

$$$$
>  <Structure smiles>
COc1cc2nc(N/N=C3\CCCc4cccnc43)sc2cc1OC

>  <Unit info>
min

>  <half-life at 10 µM>
78.4

$$$$
>  <Structure smiles>
c1cnc2c(c1)CCC/C2=N\Nc1nc2ccccc2s1

>  <Unit info>
min

>  <half-life at 10 µM>
3.9

$$$$

---

Experiment: Half life in mouse at 1 mg/kg, iv
Assay type: ADME, organism-based
Conditions: in vivo

>  <Structure smiles>
COc1cc2nc(N/N=C3\CCCc4cccnc43)sc2cc1OC

>  <half-life (min)>
35.4

$$$$

---

Assay: Selectivity index, ratio of IC50 for HUVEC to IC50 for human MV4-11 cells
Assay type: toxicity
Details: HUVEC and MV4-11 cells, read-out: Ratio IC50
Note to self: class labels come from recorded selectivity ratio, ranges listed here: bottom bin (below 8), middle bin (8 to below 30), top bin (30 or more)

>  <Structure smiles>
Cc1ccc2nc(N/N=C3\CCCc4cccnc43)sc2c1

>  <Label value>
middle bin

$$$$
>  <Structure smiles>
COc1ccc2nc(N/N=C3\CCCc4cccnc43)sc2c1

>  <Label value>
bottom bin

$$$$
>  <Structure smiles>
c1cnc2c(c1)OCC/C2=N\Nc1nc2ccccc2s1

>  <Label value>
bottom bin

$$$$
>  <Structure smiles>
Fc1cccc2nc(N/N=C3\CCCc4cccnc43)sc12

>  <Label value>
middle bin

$$$$
>  <Structure smiles>
Fc1ccc2sc(N/N=C3\CCCc4cccnc43)nc2c1

>  <Label value>
top bin

$$$$
>  <Structure smiles>
COc1cccc2sc(N/N=C3\CCCc4cccnc43)nc12

>  <Label value>
top bin

$$$$
>  <Structure smiles>
NC(=S)N/N=C/c1ncccc1N

>  <Label value>
bottom bin

$$$$
>  <Structure smiles>
CN(/N=C1\CCCc2cccnc21)c1nc2ccccc2s1

>  <Label value>
bottom bin

$$$$
>  <Structure smiles>
c1cnc2c(c1)CCC/C2=N\Nc1nc2cc3c(cc2s1)CCC3

>  <Label value>
middle bin

$$$$
>  <Structure smiles>
c1cnc2c(c1)CCC/C2=N\Nc1nc2ccccc2s1

>  <Label value>
top bin

$$$$
>  <Structure smiles>
COc1cc2nc(N/N=C3\CCCc4cccnc43)sc2cc1OC

>  <Label value>
top bin

$$$$
>  <Structure smiles>
Cc1cc2nc(N/N=C3\CCCc4cccnc43)sc2cc1C

>  <Label value>
middle bin

$$$$

---

Assay: AUClast in mouse at 10 mg/kg, po
Format: ADME, organism-based
Parameters: route oral, time 0 - last, dose 10 mg/kg
Conditions: in vivo

>  <Structure smiles>
COc1cc2nc(N/N=C3\CCCc4cccnc43)sc2cc1OC

>  <AUC(0-t) / ng·h/mL>
734

$$$$
